- Tested on: MDCK cells
- Assay Setup: dog, 48 h, 50 μM
Measured Attribute: Cell viability(%)
# unit: % | format: bare number

Some molecules with recorded Cell viability(%):
| Molecule | Cell viability(%) |
| --- | --- |
| CC1(C)CC[C@]2(C(=O)O[C@H]3OC[C@H](O)C(O)C3O)C(O)C[C@]3(C)C(=CC[C@@H]4[C@@]5(C)CC[C@H](O)C(C)(C)[C@@H]5CC[C@]43C)[C@@H]2C1 (stereo partly drawn) | 0.1 |
| CC1(C)CC[C@]2(C(=O)O[C@H]3OC(CO)[C@H](O)C(O)C3O)C(O)C[C@]3(C)C(=CC[C@@H]4[C@@]5(C)CC[C@H](O)C(C)(C)C5CC[C@]43C)[C@@H]2C1 (stereo partly drawn) | 101.1 |
| CC1(C)CC[C@]2(C(=O)O[C@H]3OC(CO)[C@H](O[C@H]4OC(CO)[C@H](O)C(O)C4O)C(O)C3O)C(O)C[C@]3(C)C(=CC[C@@H]4[C@@]5(C)CC[C@H](O)C(C)(C)[C@@H]5CC[C@]43C)[C@@H]2C1 (stereo partly drawn) | 98.3 |
| CC(=O)OC1C(OC(C)=O)[C@H](OC(C)=O)CO[C@@H]1OC(=O)[C@]12CCC(C)(C)C[C@H]1C1=CC[C@@H]3[C@@]4(C)CC[C@H](O)C(C)(C)[C@@H]4CC[C@@]3(C)[C@]1(C)CC2O (stereo partly drawn) | 100.9 |
| CC1(C)CC[C@]2(C(=O)O[C@H]3OC(CO)[C@@H](O)C(O)C3O)C(O)C[C@]3(C)C(=CC[C@@H]4[C@@]5(C)CC[C@H](O)C(C)(C)[C@@H]5CC[C@]43C)[C@@H]2C1 (stereo partly drawn) | 89 |
| CC1(C)CC[C@]2(C(=O)O[C@H]3OC(CO)[C@H](O[C@@H]4OC(CO)[C@H](O)C(O)C4O)C(O)C3O)C(O)C[C@]3(C)C(=CC[C@@H]4[C@@]5(C)CC[C@H](O)C(C)(C)[C@@H]5CC[C@]43C)[C@@H]2C1 (stereo partly drawn) | 91.7 |
| CC1(C)CC[C@]2(C(=O)O[C@H]3OC[C@@H](O)C(O)C3O)C(O)C[C@]3(C)C(=CC[C@@H]4[C@@]5(C)CC[C@H](O)C(C)(C)[C@@H]5CC[C@]43C)[C@@H]2C1 (stereo partly drawn) | 38.4 |
| CC(=O)OC1C(OC(C)=O)[C@@H](OC(C)=O)CO[C@@H]1OC(=O)[C@]12CCC(C)(C)C[C@H]1C1=CC[C@@H]3[C@@]4(C)CC[C@H](O)C(C)(C)[C@@H]4CC[C@@]3(C)[C@]1(C)CC2O (stereo partly drawn) | 100.4 |

Return Cell viability(%) measured with MDCK cells given this molecule: CC(=O)OCC1O[C@H](OC(=O)[C@]23CCC(C)(C)C[C@H]2C2=CC[C@@H]4[C@@]5(C)CC[C@H](O)C(C)(C)C5CC[C@@]4(C)[C@]2(C)CC3O)C(OC(C)=O)C(OC(C)=O)[C@H]1OC(C)=O (stereo partly drawn) 110.2

###

- Test system: MDCK cells
- Assay Setup: dog, 48 h, 50 μM
Cell viability (%) by entry:
The answer is to be given in %; state only the numeric part.

Example entries begin here.
| Compound | Cell viability (%) |
| --- | --- |
| CC1(C)CC[C@]2(C(=O)N[C@H]3OC(CO)[C@H](O)C(O)C3O)CC[C@]3(C)C(=CCC4[C@@]5(C)CC[C@H](O)C(C)(C)C5CC[C@]43C)C2C1 (stereo partly drawn) [Compound Y8] | 85.0 |
| CC(=O)OCC1O[C@H](NC(=O)[C@]23CCC(C)(C)CC2C2=CCC4[C@@]5(C)CC[C@H](O)C(C)(C)C5CC[C@@]4(C)[C@]2(C)CC3)C(OC(C)=O)C(OC(C)=O)[C@@H]1OC(C)=O (stereo partly drawn) [Compound Y5] | 81.7 |

Using the record for CC(=O)OCC1O[C@H](NC(=O)[C@]23CCC(C)(C)CC2C2=CCC4[C@@]5(C)CC[C@H](O)C(C)(C)C5CC[C@@]4(C)[C@]2(C)C[C@H]3O)C(OC(C)=O)C(OC(C)=O)[C@@H]1OC(C)=O (stereo partly drawn) [Compound Y1] , report its Cell viability (%). 84.8
